- target_desc: recombinant human SYK (GST-hSYK fusion protein) (Homo sapiens)
- assay_name: biochemical
- condition_info: rhSYK Activity, Table 10, Formula A
Listed here: items and their measured IC50.
endpoint_label: IC50

compound	endpoint_label	reported_measurement
Cc1cc(Nc2nccc(C(C)C)n2)cc(-c2cnc(C3(O)CCNC(=O)CC3)s2)c1 (single isomer, unassigned) [Example 10A-2]	IC50	< 100 nM
COCc1cc(Nc2nccc(C(F)(F)F)n2)cc(-c2cnc(C3(O)CCNC(=O)CC3)s2)c1 (stereo not drawn) [Example 10A-4]	IC50	< 100 nM
COc1ccnc(Nc2cc(C)cc(-c3cnc(C4(O)CCNC(=O)CC4)s3)c2)n1 (stereo not drawn) [Example 10A-1]	IC50	< 100 nM

###

- target_desc: rhSYK (Homo sapiens)
- condition_info: read-out: rhSYK Activity; class symbol; where two forms are listed, one symbol per form
endpoint_label: IC50

compound	reported_measurement
Cc1cc(Nc2nccc(C(F)(F)F)n2)cc(-c2cnc(C(C)(O)c3ccc(N4CC(C(=O)O)CC4=O)cc3)s2)c1 (stereo not shown)	< 100 nM
CC(O)(c1cccnc1)c1ncc(-c2cccc(Nc3nccc(C(F)(F)F)n3)c2)s1 (stereo not shown)	< 100 nM
OC(c1cccnc1)(c1nnco1)c1ncc(-c2cccc(Nc3nccc(C(F)(F)F)n3)c2)s1 (stereo not shown)	100 to 1000 nM
Cc1cc(Nc2ncc(F)c(C3CC3)n2)cc(-c2cnc(C(C)(O)CO)s2)c1 (stereo not shown) [Ex 5-16]	< 100 nM

###

Quick list: pIC50 per entry.
- target_desc: recombinant human SYK (GST-hSYK fusion protein) (Homo sapiens, UniProt P43405)
- assay_name: biochemical
- condition_info: rhSYK Activity (IC50), recombinant human GST-SYK 5 pM, ATP 25 μM, biotinylated substrate peptide 250 nM, HTRF, 10-dose titration
pIC50: −log10 of the molar value.
endpoint_label: pIC50

compound	endpoint_label	reported_measurement
Cc1cc(Nc2nccc(C(F)(F)F)n2)cc(-c2cnc(C(=O)NC(C)CO)s2)c1 (stereo not shown) [Example 87A-8]	pIC50	> 7.00
Cc1cc(Nc2nccc(C(F)(F)F)n2)cc(-c2cnc(CN(C)C3COCC3O)s2)c1 (stereo not shown) [Example 88A-54]	pIC50	> 7.00
Cc1cc(Nc2nccc(C(F)(F)F)n2)cc(-c2cnc(C(=O)NC3(CO)CCCC3)s2)c1 [Example 87A-16]	pIC50	5.00 to 6.00
C=C(F)CNC(=O)c1ncc(-c2cc(C)cc(Nc3nccc(C(F)(F)F)n3)c2)s1 [Example 87A-19]	pIC50	> 7.00
Cc1cc(Nc2nccc(C(F)(F)F)n2)cc(-c2cnc(C(=O)N3CCC[S+]([O-])CC3)s2)c1 (stereo not shown) [Example 87B-13]	pIC50	> 7.00
Cc1cc(Nc2nccc(C(F)(F)F)n2)cc(-c2cnc(C3(c4nnc(C)o4)CC3)s2)c1 [Example 85B-4]	pIC50	> 7.00
Cc1cc(Nc2ncccn2)cc(-c2cnc(C3(O)CCC3)s2)c1 [Example 100A-3]	pIC50	6.00 to 7.00
COC/C=C/c1ccnc(Nc2cc(C)cc(-c3cnc(C4(O)CCC(C(=O)OC(C)(C)C)CC4)s3)c2)n1 (stereo not shown)	pIC50	6.00 to 7.00
Cc1cc(Nc2nccc(C(F)(F)F)n2)cc(-c2cnc(C(=O)NCCS(C)(=O)=O)s2)c1 [Example 87A-5]	pIC50	> 7.00
Cc1cc(Nc2nccc(C(F)(F)F)n2)cc(-c2cnc(CNCCN3CCNC(=O)C3)s2)c1 [Example 88A-30]	pIC50	> 7.00
Cc1cc(Nc2nccc(C3CCC3)n2)cc(-c2cnc(C3(O)CCC3)s2)c1	pIC50	> 7.00
COCC1CN(Cc2ncc(-c3cc(C)cc(Nc4nccc(C(F)(F)F)n4)c3)s2)CCO1 (stereo not shown) [Example 88B-13]	pIC50	> 7.00
Cc1cc(Nc2nccc(OCc3ccccc3)n2)cc(-c2cnc(C(C)(O)C(F)(F)F)s2)c1 (stereo not shown) [Example 94B-1]	pIC50	> 7.00
Cc1cc(Nc2nccc(OCCO)n2)cc(-c2cnc(C3(O)CCC(C(=O)O)C(C)(C)C3)s2)c1 (stereo not shown)	pIC50	> 7.00
Cc1cc(Nc2nccc(C(F)(F)F)n2)cc(-c2cnc(CN3CCP(=O)(C(C)C)CC3)s2)c1 [Example 88B-17]	pIC50	> 7.00
Cc1cc(Nc2nccc(C(F)(F)F)n2)cc(-c2cnc(CN3CCNC(=O)CC3)s2)c1 [Example 88B-7]	pIC50	> 7.00
Cc1cc(Nc2nccc(C(F)C3CC3)n2)cc(-c2cnc(C3(O)CCC(C(=O)O)C(C)(C)C3)s2)c1 (single isomer, unassigned) [Example 100A-21]	pIC50	> 7.00
COc1nc(Nc2cc(C)cc(-c3cnc(C4(O)CCC(C(=O)O)C(C)(C)C4)s3)c2)ncc1C (stereo not shown) [Example 100A-13]	pIC50	> 7.00
Cc1cc(Nc2nccc(C(F)(F)F)n2)cc(-c2cnc(CNCCS(C)(=O)=O)s2)c1 [Example 88A-24]	pIC50	> 7.00
Cc1cc(Nc2ncccn2)cc(-c2cnc(C(C)(O)C(F)(F)F)s2)c1 (stereo not shown)	pIC50	6.00 to 7.00
Cc1cc(Nc2nc(C)cc(C)n2)cc(-c2cnc(C3(O)CCC(C(=O)O)C(C)(C)C3)s2)c1 (stereo not shown) [Example 100A-9]	pIC50	6.00 to 7.00
Cc1cc(Nc2nccc(C(F)(F)F)n2)cc(-c2cnc(C(=O)NCc3cncn3C)s2)c1 [Example 87A-14]	pIC50	> 7.00
C=Cc1ccnc(Nc2cc(C)cc(-c3cnc([C@@]4(O)CC[C@H](C(=O)OC)C(C)(C)C4)s3)c2)n1	pIC50	> 7.00
Cc1cc(Nc2nccc(OCC3CNC3)n2)cc(-c2cnc(C3(O)CCC3)s2)c1 [Example 94A-27]	pIC50	> 7.00
CCNC(=O)NCc1ncc(-c2cc(C)cc(Nc3nccc(C(F)(F)F)n3)c2)s1 [Example 88A-62]	pIC50	> 7.00
Cc1cc(Nc2nccc(OC3CCC(C)(O)CC3)n2)cc(-c2cnc(C(C)(O)C(F)(F)F)s2)c1 (stereo not shown) [Example 94B-2]	pIC50	> 7.00
Cc1cc(Nc2nccc(C(F)(F)F)n2)cc(-c2cnc(C(=O)NC(C)(CO)CO)s2)c1 [Example 87A-12]	pIC50	> 7.00
Cc1cc(Nc2nccc(C(F)(F)F)n2)cc(-c2cnc(CCc3ccc(C(=O)O)cc3)s2)c1	pIC50	> 7.00
Cc1cc(Nc2nccc(OC3CCCNCC3)n2)cc(-c2cnc(C3(O)CCC3)s2)c1 (stereo not shown) [Example 94A-21]	pIC50	> 7.00
Cc1cc(Nc2ncc(C3CC3)cn2)cc(-c2cnc(C(C)(O)C(F)(F)F)s2)c1 (stereo not shown) [Example 100B-4]	pIC50	5.00 to 6.00
CNCCOc1ccnc(Nc2cc(C)cc(-c3cnc(C4(O)CCC4)s3)c2)n1 [Example 94A-23]	pIC50	6.00 to 7.00

###

- target_desc: rhSYK (Homo sapiens, UniProt P43405)
- condition_info: read-out: rhSYK Activity; class symbol; where two forms are listed, one symbol per form
pIC50: −log10 of the molar value.
Parameter: pIC50. Scope: all listed entries.
endpoint_label: pIC50

molecule	endpoint_label	reported_measurement
COc1ccnc(Nc2cc(C)cc(-c3cnc(C(C)(O)c4ccc(C(=O)O)cc4)s3)c2)n1 (stereo not shown)	pIC50	> 7.00
CC(O)(c1ncc(-c2cccc(Nc3nccc(C(F)(F)F)n3)c2)s1)C(F)(F)C(F)(F)C(F)(F)F (stereo not shown)	pIC50	5.00 to 6.00
Cc1cc(Nc2nccc(C(F)(F)F)n2)cc(-c2cnc(C(C)(O)c3ccc([N+](=O)[O-])cc3)s2)c1 (stereo not shown)	pIC50	6.00 to 7.00
Cc1cc(Nc2nccc(C(F)(F)F)n2)cc(-c2cnc(C(O)(C3CC3)C3CC3)s2)c1	pIC50	> 7.00
COC(=O)c1ccc(C(C)(O)c2ncc(-c3cc(C)cc(Nc4nccc(C(F)(F)F)n4)c3)s2)cc1OC (stereo not shown)	pIC50	6.00 to 7.00
Cc1cc(Nc2nccc(C)n2)cc(-c2cnc(C(O)(CO)CO)s2)c1	pIC50	> 7.00
Cc1cc(Nc2nccc(C(F)(F)F)n2)cc(-c2cnc(C(C)(O)CO)s2)c1 (stereo not shown) [Ex 5-6]	pIC50	> 7.00

###

- target_desc: recombinant human SYK (GST-hSYK fusion protein) (Homo sapiens)
- condition_info: read-out: rhSYK Activity; Table 54D

molecule	target_desc	IC50
Cc1cc(Nc2nccc(C(F)(F)F)n2)cc(-c2cnc(C3(O)CCCN(C(=O)CC(=O)O)CC3)s2)c1 (single isomer, unassigned) [Example 54D-26]	recombinant human SYK (GST-hSYK fusion protein) (Homo sapiens)	< 100 nM
Cc1cc(Nc2nccc(C(F)(F)F)n2)cc(-c2cnc(C3(O)CCCN(S(N)(=O)=O)CC3)s2)c1 (single isomer, unassigned) [Example 54D-117]	recombinant human SYK (GST-hSYK fusion protein) (Homo sapiens)	< 100 nM
Cc1cc(Nc2nccc(C(F)(F)F)n2)cc(-c2cnc(C3(O)CCCN(C(=O)CCC(N)=O)CC3)s2)c1 (single isomer, unassigned) [Example 54D-42]	recombinant human SYK (GST-hSYK fusion protein) (Homo sapiens)	< 100 nM
